System: Mus musculus
test details: Anticonvulsant activity in ip dosed Swiss albino mouse assessed as minimum drug concentration required for inhibition of maximal electroshock-induced seizure in half or more of mouse after 4 hrs by MES test
Format: functional
Items are presented alongside their recorded Activity.
Numeric only. Scale: mg/kg

Consider the following illustrative entries.
CCC1(c2ccccc2)C(=O)NC(=O)NC1=O: 30
NC(=O)N1c2ccccc2C=Cc2ccccc21 [CARBAMAZEPINE]: 100
O=C(N/N=C/c1ccccc1Cl)Nc1nc2c(ccc3ccccc32)s1: 300

Suppose we examine the compound COc1cc(/C=N/NC(=O)Nc2nc3c(ccc4ccccc43)s2)cc(OC)c1OC ; what Activity value has been reported?
300

Suppose we examine the compound O=C(N/N=C/c1ccc(Cl)cc1)Nc1nc2c(ccc3ccccc32)s1 ; what Activity value has been reported?
100
